assay: Pharmacokinetic profile of Solifenacin salts in fasted male Wistar rats; format: in vivo; settings: male, Wistar, rat, plasma, 30 mg/kg, Table 3a; fasted male Wistar rats; dose 30 mg/kg; mean; read-out: AUC (0-t)
Structures can show the parent of a compound that is named as a salt.
quantity.kind: AUC (0-t) (ng·h/mL)
Give bare numbers, in ng·h/mL.

The recorded AUC (0-t) for entry O=C(O[C@H]1CN2CCC1CC2)N1CCc2ccccc2[C@@H]1c1ccccc1 [Solifenacin Hydrochloride] equals 147

---

assay: Pharmacokinetic profile of Solifenacin salts in fasted male Wistar rats; format: in vivo; details: male, Wistar, rat, plasma, 30 mg/kg, Table 3a; fasted male Wistar rats; dose 30 mg/kg; mean; read-out: AUC (0-inf)
Counter-ions that a name gives are not always drawn.
quantity.kind: AUC (0-inf) (ng·h/mL)
One number for each entry, in ng·h/mL.

The recorded AUC (0-inf) for entry O=C(O[C@H]1CN2CCC1CC2)N1CCc2ccccc2[C@@H]1c1ccccc1 [Solifenacin Hydrochloride] equals 158
